biological target: AGTR1 (Homo sapiens, UniProt P30556); construct: host or cells: Pathunter CHO-K1 AGTR1 β-arrestin cell line (CHO-K1); test: DiscoveRx IP1 accumulation assay (HTRF), agonist mode, Pathunter CHO-K1 AGTR1 β-arrestin cell line; format: cell-based
Recorded measurements of IP-1 Ymax (%), one per entry
Respond with the bare value in %.

Quick one: IP-1 Ymax (%) for CCCCC1=NC2(CCCC2)C(=O)N1Cc1ccc(-c2cc(-c3cccc(C(F)(F)F)n3)ccc2-c2nn[nH]n2)cc1 [Example 142] ?
4.8

----------
Target: AGTR1 (Homo sapiens)
Construct: host or cells: Pathunter CHO-K1 AGTR1 β-arrestin cell line (CHO-K1)
Sequence (P30556 1-359): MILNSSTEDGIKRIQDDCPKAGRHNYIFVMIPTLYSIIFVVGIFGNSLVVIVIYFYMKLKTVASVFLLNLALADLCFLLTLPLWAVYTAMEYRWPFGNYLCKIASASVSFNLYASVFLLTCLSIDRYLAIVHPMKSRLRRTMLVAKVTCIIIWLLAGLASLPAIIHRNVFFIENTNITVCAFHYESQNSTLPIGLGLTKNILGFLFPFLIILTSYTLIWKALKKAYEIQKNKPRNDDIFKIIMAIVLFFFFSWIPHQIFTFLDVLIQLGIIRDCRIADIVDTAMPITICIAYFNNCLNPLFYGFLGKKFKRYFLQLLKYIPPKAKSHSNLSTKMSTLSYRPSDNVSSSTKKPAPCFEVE
Experiment: DiscoveRx β-arrestin2 recruitment assay (enzyme complementation, Pathunter CHO-K1 AGTR1 β-arrestin cell line)
Format: cell-based
Conditions: DiscoveRx β-arrestin2 recruitment, maximal response
In this section we review reported DiscoveRx β-arrestin2 Ymax (%) values for a set of compounds.
The reply should be a number in %, with the unit left off.

compound="CCc1nc2c(C)cc(C)nc2n1Cc1ccc(-c2cc(-c3cc(C)cc(C)n3)ccc2C(=O)O)cc1 [Example 194]" target_under_test="AGTR1 (Homo sapiens)" observable="DiscoveRx β-arrestin2 Ymax (%)" data_value=36.6
compound="CCCCC1=NC2(CCOC2)C(=O)N1Cc1ccc(-c2cc(-c3cccc(C)c3)ccc2-c2nnn[nH]2)cc1 (single isomer, unassigned) [Example 153]" target_under_test="AGTR1 (Homo sapiens)" observable="DiscoveRx β-arrestin2 Ymax (%)" data_value=19.6
compound="CCc1nc2c(C)cc(C)nc2n1Cc1ccc(-c2cc(Oc3cncc(C)c3)ccc2-c2nn[nH]n2)cc1 [Example 260]" target_under_test="AGTR1 (Homo sapiens)" observable="DiscoveRx β-arrestin2 Ymax (%)" data_value=36.4
compound="CCCCc1ncc(C(=O)Nc2ccncc2C)n1Cc1ccc(-c2cc(-c3ccccc3)ccc2-c2nn[nH]n2)cc1 [Example 375]" target_under_test="AGTR1 (Homo sapiens)" observable="DiscoveRx β-arrestin2 Ymax (%)" data_value=35.8
compound="CCc1nc2c(C)cc(C)nc2n1Cc1ccc(-c2cc(Oc3cc(C)ccn3)ccc2-c2nn[nH]n2)cc1 [Example 250]" target_under_test="AGTR1 (Homo sapiens)" observable="DiscoveRx β-arrestin2 Ymax (%)" data_value=43.9

Requested field: DiscoveRx β-arrestin2 Ymax (%). Item: CCc1nc2c(C)cc(C)nc2n1Cc1ccc(-c2cc(C3CCCCO3)ccc2-c2nn[nH]n2)cc1 (single isomer, unassigned) [Example 78]
50.0

Entry CCc1nc2c(C)cc(C)nc2n1Cc1ccc(-c2cc(-c3cn(CCF)nn3)ccc2-c2nnn[nH]2)cc1 [Example 239] please
59.1

Origin of values: patent US12037324B2
